- Tested target: aggrecanase-1 (Homo sapiens)
- Sequence (O75173 213-837, species assumed): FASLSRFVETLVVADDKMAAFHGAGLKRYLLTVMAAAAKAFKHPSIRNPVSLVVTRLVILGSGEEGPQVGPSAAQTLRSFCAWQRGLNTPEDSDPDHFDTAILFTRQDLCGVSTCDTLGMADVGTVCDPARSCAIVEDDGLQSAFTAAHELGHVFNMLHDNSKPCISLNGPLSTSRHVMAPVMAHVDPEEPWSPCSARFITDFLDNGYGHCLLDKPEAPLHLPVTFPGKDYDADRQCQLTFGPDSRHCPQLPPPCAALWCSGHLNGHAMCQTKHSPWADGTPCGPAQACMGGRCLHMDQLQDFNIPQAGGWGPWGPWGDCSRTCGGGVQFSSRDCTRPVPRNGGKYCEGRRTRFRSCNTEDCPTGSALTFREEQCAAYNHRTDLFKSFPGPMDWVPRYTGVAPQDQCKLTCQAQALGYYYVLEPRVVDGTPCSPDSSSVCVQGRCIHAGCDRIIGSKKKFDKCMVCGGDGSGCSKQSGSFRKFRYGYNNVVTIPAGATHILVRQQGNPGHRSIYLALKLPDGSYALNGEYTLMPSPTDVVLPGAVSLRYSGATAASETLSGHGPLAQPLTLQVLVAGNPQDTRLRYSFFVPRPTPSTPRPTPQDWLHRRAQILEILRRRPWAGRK
- Method notes: Aggrecanase-1 inhibitory action (Particle Assay, GAG release from aggrecan-containing polyacrylamide particles)
- Assay type: biochemical
- Measurement context: Experimental Example 1; read-out: IC50 AG1
Measured quantity: IC50

- Compound: "O=C(O)C1(NS(=O)(=O)c2ccc(-c3ccc(Cl)cc3)s2)CC1c1cccc(NS(=O)(=O)N2CCOCC2)c1 (stereo not drawn) [Example 2-269]"
  Assay value: "< 100 nM"
- Compound: "O=C1OCC2C(c3ccccc3)C12NS(=O)(=O)c1ccc(-c2cc(C(F)(F)F)on2)s1 (stereo not drawn) [Example 2-312]"
  Assay value: "≥ 1000 nM"
- Compound: "O=C(OCC1(c2ccccc2)CC1(NS(=O)(=O)c1ccc(-c2cc(C(F)(F)F)on2)s1)C(=O)O)N1CCOCC1 (stereo not drawn) [Example 2-306]"
  Assay value: "< 1000 nM"
- Compound: "C[C@]1(c2ccccc2)C[C@@]1(NS(=O)(=O)c1csc2ccc(-c3ccccc3)cc12)C(=O)O [Example 2-585]"
  Assay value: "≥ 1000 nM"
- Compound: "O=C(O)C1(NS(=O)(=O)c2ccc(-c3ccc(Cl)cc3)s2)CC1(Cn1ccnc1)c1ccccc1 (stereo not drawn) [Example 2-346]"
  Assay value: "< 1000 nM"
- Compound: "O=C(O)[C@@]1(NS(=O)(=O)c2ccc(-c3cc(C(F)(F)F)on3)s2)C[C@H]1c1ccc(CCO)cc1 [Example 2-301]"
  Assay value: "< 100 nM"
- Compound: "C[C@]1(c2ccccc2)C[C@@]1(NS(=O)(=O)c1ccc(-c2cccc(C(=O)O)c2)s1)C(=O)O [Example 2-479]"
  Assay value: "≥ 1000 nM"
- Compound: "CS(=O)(=O)CC1(c2ccccc2)CC1(NS(=O)(=O)c1ccc(-c2ccc(Cl)cc2)s1)C(=O)O (stereo not drawn) [Example 2-440]"
  Assay value: "< 1000 nM"
- Compound: "CC1[C@H](c2ccccc2)[C@]1(NS(=O)(=O)N1Cc2ccc(O)cc2C1)C(=O)O (stereo partly drawn) [Example 2-548]"
  Assay value: "≥ 1000 nM"
- Compound: "C[C@]1(c2ccccc2)C[C@@]1(NS(=O)(=O)c1ccc(-c2ccc(CO)c(F)c2)s1)C(=O)O [Example 2-594]"
  Assay value: "< 1000 nM"
- Compound: "C[C@]1(c2ccccc2)C[C@@]1(NS(=O)(=O)c1ccc(-c2cccc(N)c2)s1)C(=O)O [Example 2-452]"
  Assay value: "< 1000 nM"
- Compound: "CC1[C@H](c2ccccc2)[C@]1(NS(=O)(=O)N1CCC(Oc2ccc(Cl)cc2)C1)C(=O)O (stereo partly drawn) [Example 2-500]"
  Assay value: "≥ 1000 nM"
- Compound: "CC1[C@H](c2ccccc2)[C@]1(NS(=O)(=O)N1CCCN(c2ccc(F)cn2)CC1)C(=O)O (stereo partly drawn) [Example 2-462]"
  Assay value: "< 1000 nM"
- Compound: "CC(=O)c1cnn(-c2ccc(S(=O)(=O)N[C@@]3(C(=O)O)C(C)[C@@H]3c3ccccc3)s2)c1 (stereo partly drawn) [Example 2-546]"
  Assay value: "< 100 nM"
- Compound: "C[C@]1(c2ccccc2)C[C@@]1(NS(=O)(=O)c1ccc(-c2ccncc2)s1)C(=O)O [Example 2-526]"
  Assay value: "≥ 1000 nM"
